test system: CAKI-1 renal; assay: NCI tumour cell line growth inhibition, 48 h
Task for the reader: assign each of the following molecules its reported TGI.

Molecule	TGI
Nc1nc(N)[n+]([O-])c(N)c1NCO	> 100 µM
CSCCC(NCc1c(O)ccc2ccc(=O)oc12)C(=O)O (stereo not drawn)	> 100 µM

[Q] Let me know recorded TGI for O=C(O)CCC(NC(=O)c1ccc(Nc2nc3ccccc3nc2C(=O)O)cc1)C(=O)O (stereo not drawn) , thanks.
[A] > 100 µM

---

system: SF-539 CNS; experiment: NCI tumour cell line growth inhibition, 48 h
Property: TGI (µM)
Numbers only, in µM.

Molecule	Property	Units	Measured number
O=[N+]([O-])c1ccc(Sc2ncccn2)c([N+](=O)[O-])c1	TGI	µM	8.82
COc1ccc(/C(=C/c2cc(OC)c(OC)c(OC)c2)[N+](=O)[O-])cc1	TGI	µM	2.98
COc1ccccc1C(=O)/C=C/c1cc2cccc(OC)c2[nH]c1=O	TGI	µM	0.0848
O=C1C(C(O)(C(F)(F)Cl)C(F)(F)Cl)CCC1C(O)(C(F)(F)Cl)C(F)(F)Cl (stereo not drawn)	TGI	µM	8.56
COc1cc2c3c(n(C)c(=O)c2cc1OC)-c1cc2c(cc1/C3=C\CCCCN)OCO2	TGI	µM	6.23

Give measured TGI for every item shown.
1. COc1cc([C@@H]2c3cc4c(cc3[C@H](OC3OC5COC(C(C)C)OC5C(O)C3O)C3COC(=O)[C@@H]32)OCO4)cc(OC)c1O (stereo partly drawn)
2. C1CCC([PH+](C2CCCCC2)C2CCCCC2[PH+](C2CCCCC2)C2CCCCC2)CC1.[Au].[CH-]1CCCCC1C1CCCC[N-]1 (stereo not drawn)

[A]
[8.18, 1.28]

Give measured TGI for every item shown.
1. COc1cc(O)c(C(=O)/C=C/c2ccccc2)c(OC)c1
2. CC(C)(C)c1cc(C(=O)/C=C/c2ccc(O)c(O)c2O)cc(C(C)(C)C)c1O
3. COC(=O)Nc1nc2ccc(C(=O)c3ccc[nH]3)cc2[nH]1

[A]
1: 12.8; 2: 10.2; 3: 42.3

---

system: HCC-2998 colon; assay: NCI tumour cell line growth inhibition, 48 h; in the data active means GI50 below about 0.43 µM; inactive means the rest
I would appreciate it if you answered using one of these outcomes: True (active), False (inactive)

Solved entries (count: 3):
Molecule	Answer label
O=[N+]([O-])c1ccc(Sc2ncccn2)c([N+](=O)[O-])c1	False
COc1ccc(N(C)c2nc(C)nc3ccccc23)cc1	True
O=C(CCCc1c[nH]c2ccccc12)NC1CC(=O)c2c(Br)sc(Br)c21 (centres undefined)	False

[Q] Give the logged outcome of this assay for the following molecule: `N#C/C(=C\c1c(-c2ccccc2)[nH]c2ccccc12)C(=O)c1ccc(Cl)cc1`
[A] False

---

test system: PC-3 prostate; test: NCI tumour cell line growth inhibition, 48 h
Property: TGI (µM)
One number for each entry, in µM.

Molecule	Units	TGI
O/N=c1/ccn(O)c2ccccc12	µM	8.88

// below: TGI requested for another compound
[Q] Let me know recorded TGI for `COc1ccccc1/C=C1\Sc2scc(-c3cccc([N+](=O)[O-])c3)[n+]2C1=O` , thanks.
[A] 37.4

---

Task for the reader: assign each of the following molecules its reported TGI.
test system: HCT-15 colon; assay: NCI tumour cell line growth inhibition, 48 h
One number for each entry, in µM.

Molecule	TGI (µM)
O=C1/C(=C\c2ccc([N+](=O)[O-])cc2)Sc2scc(-c3ccc(O)c(O)c3)[n+]21	14.1
Cc1ccc(S(=O)(=O)NC(CCC(=O)Nc2ccc(Cl)cc2)C(=O)Nc2ccc(Cl)cc2)cc1 (stereo not given)	7.36

// below: TGI requested for another molecule
[Q] Let me know recorded TGI for COc1cc(C2CC(c3cccc(Nc4ccncc4)c3)=NN2c2cc(Cl)cc(Cl)c2)cc(OC)c1OC (stereo not given) , thanks.
[A] 3.43

Ref: PubChem BioAssay (NCI)
